- System: plasma and liver cholesterol
- run_description: Percent cholesterol lowering in plasma and liver
- Assay type: in vivo
- measurement_setup: hamster, plasma
readout_name: cholesterol lowering Plasma (%)

• O=C1[C@H](CC[C@H](O)c2ccc(F)cc2)[C@@H](c2ccc(O[C@@H]3O[C@H](CO)[C@@H](O[C@@H]4O[C@H](CO)[C@@H](O)[C@H](O)[C@H]4O)[C@H](O)[C@H]3O)cc2)N1c1ccc(F)cc1 [compound 5] = 36
• O=C(O)[C@H]1O[C@@H](Oc2ccc([C@@H]3[C@@H](CC[C@H](O)c4ccc(F)cc4)C(=O)N3c3ccc(F)cc3)cc2)[C@H](O)[C@@H](O)[C@@H]1O [compound 4, glucuronidated ezetimibe] = 48

// data source = patent US8212016B2
